Tested on: NCI-H1876 complex spheroid growth, % test/control
Assay: Anticancer human tumor NCI-H1876 cell line growth inhibition [Asc]
Conditions: second compound 0.949 µM; first compound 1 µM; active compounds read low
Below, each entry is listed with its recorded viability, T/C.
The reply should be a number in %, with the unit left off.

// known answers, use as guide
1. COc1c(OCCCN2CCOCC2)ccc2c3n(c(=NC(=O)c4cnc(N)nc4)nc12)CCN3 + CCN1C(C(=O)NC23CCC(C(=O)O)(CC2)CC3)C(c2cccc(Cl)c2F)C2(C(=O)Nc3cc(Cl)ccc32)C12CCCCC2 : 43.9
2. CCN1CCN(Cc2ccc(Nc3ncc(F)c(-c4cc(F)c5nc(C)n(C(C)C)c5c4)n3)nc2)CC1 + CCN1C(C(=O)NC23CCC(C(=O)O)(CC2)CC3)C(c2cccc(Cl)c2F)C2(C(=O)Nc3cc(Cl)ccc32)C12CCCCC2 : 122
3. CNC(C)C(=O)NC1CN(S(=O)(=O)c2cccc(S(=O)(=O)N3CCC4CCC(C(=O)NC(c5ccccc5)c5ccccc5)N4C(=O)C(NC(=O)C(C)NC)C3)c2)CCC2CCC(C(=O)NC(c3ccccc3)c3ccccc3)N2C1=O (centres undefined) + CCN1C(C(=O)NC23CCC(C(=O)O)(CC2)CC3)C(c2cccc(Cl)c2F)C2(C(=O)Nc3cc(Cl)ccc32)C12CCCCC2 : 112

Next up:
Per the records, this molecule ( O=C(c1ccc(F)c(F)c1Nc1ccc(I)cc1F)N1CC(O)([C@@H]2CCCCN2)C1 + CCN1C(C(=O)NC23CCC(C(=O)O)(CC2)CC3)C(c2cccc(Cl)c2F)C2(C(=O)Nc3cc(Cl)ccc32)C12CCCCC2 ) has viability, T/C equal to 77.4

---

Tested on: NCI-H1876 complex spheroid growth, % test/control
Test: Anticancer human tumor NCI-H1876 cell line growth inhibition [Asc];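 note: compound exposure lasted 7 days starting three days after seeding; 100% = DMSO vehicle control wells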
Conditions: second compound 0.0316 µM; first compound 0.3 µM; active compounds read low
// boundary case: viability, T/C equal to 80% maps to Criterion not met; strictly smaller maps to Criterion met

1. Cc1nc(N2CCC3(CC2)COC(C)C3N)c(CO)nc1Sc1ccnc(N)c1Cl (stereo unspecified) + CNC(C)C(=O)NC1CN(S(=O)(=O)c2cccc(S(=O)(=O)N3CCC4CCC(C(=O)NC(c5ccccc5)c5ccccc5)N4C(=O)C(NC(=O)C(C)NC)C3)c2)CCC2CCC(C(=O)NC(c3ccccc3)c3ccccc3)N2C1=O : Criterion not met
2. CCN1C(C(=O)NC23CCC(C(=O)O)(CC2)CC3)C(c2cccc(Cl)c2F)C2(C(=O)Nc3cc(Cl)ccc32)C12CCCCC2 (stereo unspecified) + Cc1c(S(C)(=O)=O)c(-c2cc(F)cc(N3CCN(c4ccc(NS(=O)(=O)c5ccc(NC(CCN6CCC(C(=O)OCCCP(=O)(O)O)CC6)CSc6ccccc6)c(S(=O)(=O)C(F)(F)F)c5)cc4)CC3)c2)c(-c2ccc(Cl)cc2)n1C(C)C : Criterion not met
3. NC(=O)C(=Cn1cnc(-c2cc(C(F)(F)F)cc(C(F)(F)F)c2)n1)c1cncnc1 + Cc1c(S(C)(=O)=O)c(-c2cc(F)cc(N3CCN(c4ccc(NS(=O)(=O)c5ccc(NC(CCN6CCC(C(=O)OCCCP(=O)(O)O)CC6)CSc6ccccc6)c(S(=O)(=O)C(F)(F)F)c5)cc4)CC3)c2)c(-c2ccc(Cl)cc2)n1C(C)C : Criterion met
4. CCN1C(C(=O)NC23CCC(C(=O)O)(CC2)CC3)C(c2cccc(Cl)c2F)C2(C(=O)Nc3cc(Cl)ccc32)C12CCCCC2 (stereo unspecified) + CNC(C)C(=O)NC1CN(S(=O)(=O)c2cccc(S(=O)(=O)N3CCC4CCC(C(=O)NC(c5ccccc5)c5ccccc5)N4C(=O)C(NC(=O)C(C)NC)C3)c2)CCC2CCC(C(=O)NC(c3ccccc3)c3ccccc3)N2C1=O : Criterion not met

input: viability, T/C strictly < 80% for this compound? NC(=O)C(=Cn1cnc(-c2cc(C(F)(F)F)cc(C(F)(F)F)c2)n1)c1cncnc1 + CNC(C)C(=O)NC1CN(S(=O)(=O)c2cccc(S(=O)(=O)N3CCC4CCC(C(=O)NC(c5ccccc5)c5ccccc5)N4C(=O)C(NC(=O)C(C)NC)C3)c2)CCC2CCC(C(=O)NC(c3ccccc3)c3ccccc3)N2C1=O
output: Criterion not met

---

Below, each entry is listed with its recorded viability, T/C.
Test system: NCI-H1876 complex spheroid growth, % test/control
Test: Anticancer human tumor NCI-H1876 cell line growth inhibition [Asc];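 note: compound exposure lasted 7 days starting three days after seeding; 100% = DMSO vehicle control wells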
Settings: second compound 3 µM; first compound 10 µM; active compounds read low
The reply should be a number in %, with the unit left off.

// known answers, use as guide
1. C=CC(=O)N1CCN(c2nc(=O)n(-c3c(C)ccnc3C(C)C)c3nc(-c4c(O)cccc4F)c(F)cc23)C(C)C1 (centres undefined) + CCN1C(C(=O)NC23CCC(C(=O)O)(CC2)CC3)C(c2cccc(Cl)c2F)C2(C(=O)Nc3cc(Cl)ccc32)C12CCCCC2 : 107
2. C#Cc1c(F)ccc2cc(O)cc(-c3ncc4c(N5CC6CCC(C5)N6)nc(OCC56CCCN5CC(F)C6)nc4c3F)c12 (centres undefined) + CCN1C(C(=O)NC23CCC(C(=O)O)(CC2)CC3)C(c2cccc(Cl)c2F)C2(C(=O)Nc3cc(Cl)ccc32)C12CCCCC2 : 79.2
3. C=C(F)C(=O)N1CCN(c2nc(OCC3CCCN3C)nc3c2CCN(c2cccc4cccc(Cl)c24)C3)CC1CC#N (centres undefined) + CCN1C(C(=O)NC23CCC(C(=O)O)(CC2)CC3)C(c2cccc(Cl)c2F)C2(C(=O)Nc3cc(Cl)ccc32)C12CCCCC2 : 7.68

Next up:
Per the records, this compound ( O=C(c1cc(Cc2n[nH]c(=O)c3ccccc23)ccc1F)N1CCN(C(=O)C2CC2)CC1 + CCN1C(C(=O)NC23CCC(C(=O)O)(CC2)CC3)C(c2cccc(Cl)c2F)C2(C(=O)Nc3cc(Cl)ccc32)C12CCCCC2 ) has viability, T/C equal to 76.9

---

Below, each entry is listed with its recorded viability, T/C.
System: NCI-H1876 complex spheroid growth, % test/control
Assay: Anticancer human tumor NCI-H1876 cell line growth inhibition [Asc];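 note: compound exposure lasted 7 days starting three days after seeding; 100% = DMSO vehicle control wells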
Settings: second compound 0.949 µM; first compound 1 µM; active compounds read low
The reply should be a number in %, with the unit left off.

1. O=C(c1cc(Cc2n[nH]c(=O)c3ccccc23)ccc1F)N1CCN(C(=O)C2CC2)CC1 + CCN1C(C(=O)NC23CCC(C(=O)O)(CC2)CC3)C(c2cccc(Cl)c2F)C2(C(=O)Nc3cc(Cl)ccc32)C12CCCCC2 : 123

Next up:
Per the records, this compound ( C#Cc1c(F)ccc2cc(O)cc(-c3ncc4c(N5CC6CCC(C5)N6)nc(OCC56CCCN5CC(F)C6)nc4c3F)c12 (configuration not stated) + CCN1C(C(=O)NC23CCC(C(=O)O)(CC2)CC3)C(c2cccc(Cl)c2F)C2(C(=O)Nc3cc(Cl)ccc32)C12CCCCC2 ) has viability, T/C equal to 112

---

System: NCI-H1876 complex spheroid growth, % test/control
Experiment: Anticancer human tumor NCI-H1876 cell line growth inhibition [Asc];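 note: compound exposure lasted 7 days starting three days after seeding; 100% = DMSO vehicle control wells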
Conditions: second compound 0.0949 µM; first compound 1 µM; active compounds read low
From the text: Multicellular complex tumor spheroid response to apoptosis pathway targeting inhibitors Alrizomadlin, Pelcitoclax, and Dasminapant in combination with a variety of drugs and investigational agents in selected tumor cell lines […] Compounds. […] If the clinical Cmax for an agent had not been determined, the highest concentration tested was 10 microM. […]
recordedEndpoint: viability, T/C (%)
The reply should be a number in %, with the unit left off.

1. CNC(C)C(=O)NC1CN(S(=O)(=O)c2cccc(S(=O)(=O)N3CCC4CCC(C(=O)NC(c5ccccc5)c5ccccc5)N4C(=O)C(NC(=O)C(C)NC)C3)c2)CCC2CCC(C(=O)NC(c3ccccc3)c3ccccc3)N2C1=O (stereo not given) + CCN1C(C(=O)NC23CCC(C(=O)O)(CC2)CC3)C(c2cccc(Cl)c2F)C2(C(=O)Nc3cc(Cl)ccc32)C12CCCCC2 : 110

Per the records, this compound ( C#Cc1c(F)ccc2cc(O)cc(-c3ncc4c(N5CC6CCC(C5)N6)nc(OCC56CCCN5CC(F)C6)nc4c3F)c12 (stereo not given) + CCN1C(C(=O)NC23CCC(C(=O)O)(CC2)CC3)C(c2cccc(Cl)c2F)C2(C(=O)Nc3cc(Cl)ccc32)C12CCCCC2 ) has viability, T/C equal to 97.7

Per the records, this compound ( C=CC(=O)N1CCN(c2nc(=O)n(-c3c(C)ccnc3C(C)C)c3nc(-c4c(O)cccc4F)c(F)cc23)C(C)C1 (stereo not given) + CCN1C(C(=O)NC23CCC(C(=O)O)(CC2)CC3)C(c2cccc(Cl)c2F)C2(C(=O)Nc3cc(Cl)ccc32)C12CCCCC2 ) has viability, T/C equal to 106

Per the records, this compound ( O=C(c1cc(Cc2n[nH]c(=O)c3ccccc23)ccc1F)N1CCN(C(=O)C2CC2)CC1 + CCN1C(C(=O)NC23CCC(C(=O)O)(CC2)CC3)C(c2cccc(Cl)c2F)C2(C(=O)Nc3cc(Cl)ccc32)C12CCCCC2 ) has viability, T/C equal to 102

Per the records, this compound ( C=C(F)C(=O)N1CCN(c2nc(OCC3CCCN3C)nc3c2CCN(c2cccc4cccc(Cl)c24)C3)CC1CC#N (stereo not given) + CCN1C(C(=O)NC23CCC(C(=O)O)(CC2)CC3)C(c2cccc(Cl)c2F)C2(C(=O)Nc3cc(Cl)ccc32)C12CCCCC2 ) has viability, T/C equal to 98.5

// data source = PubChem BioAssay AID1963441
